# credit: ChEMBL document CHEMBL4219207

assayExplanation: Plasma concentration in Sprague-Dawley rat at 2 mg/kg, po via gavage after 3 hrs using sample obtained from jugular vein
Format: ADME, organism-based
measuredProperty: concentration at 3 h (nM)
State the answer as a number, implicitly in nM.

CCOC(=O)N1CCN(C(=O)[C@H](CC(=O)O)NC(=O)c2cc(OC)c3ccccc3n2)CC1 ... 200

Here's the next entry for you.
IN: Need concentration at 3 h of `CCOC(=O)N1CCN(C(=O)[C@H](CCC(=O)O)NC(=O)c2cc(OC)c3ccccc3n2)CC1` , thanks.
OUT: 100

###

assaySystem: P2Y purinoceptor 12 (Homo sapiens, UniProt Q9H244)
Sequence (Q9H244 whole entry): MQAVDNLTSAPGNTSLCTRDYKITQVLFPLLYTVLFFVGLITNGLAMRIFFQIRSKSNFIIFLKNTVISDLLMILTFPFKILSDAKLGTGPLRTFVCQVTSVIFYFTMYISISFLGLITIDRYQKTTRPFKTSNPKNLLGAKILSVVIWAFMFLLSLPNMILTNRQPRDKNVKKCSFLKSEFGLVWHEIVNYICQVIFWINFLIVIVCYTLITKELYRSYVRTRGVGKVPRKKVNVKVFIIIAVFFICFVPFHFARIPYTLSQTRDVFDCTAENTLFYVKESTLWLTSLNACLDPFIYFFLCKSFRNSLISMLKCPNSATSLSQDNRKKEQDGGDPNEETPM
assayExplanation: Displacement of [3H]2MeSADP from P2Y12 receptor in human platelets after 60 mins by TopCount scintillation counting method
pIC50: −log10 of the molar value.
Label scheme for pIC50: lower = under 5, middle = from 5 up to 6, upper = 6 and over

IN: Could you place `CCOC(=O)N1CCN(C(=O)CNC(=O)c2cc(OC)c3ccccc3n2)C[C@H]1C` in its proper category? Many thanks.
OUT: middle

IN: Class (by measured pIC50) for `CCc1ccc(C(=O)N2CCN(C(=O)CNC(=O)c3cc(OC)c4ccccc4n3)CC2)cc1`
OUT: middle

IN: Assign a category based on measured pIC50 for `CCOC(=O)N1CCN(C(=O)CNC(=O)c2cc(OC)c3ccccc3n2)[C@H](C)C1` and give only the class name.
OUT: middle

###

Recorded IC50 by entry
assaySystem: P2Y purinoceptor 12 (Homo sapiens, UniProt Q9H244)
assayExplanation: Displacement of [3H]2MeSADP from P2Y12 receptor in human platelets after 60 mins by TopCount scintillation counting method
State the answer as a number, implicitly in nM.

COc1cc(C(=O)NCC(=O)N2CCN(C(=O)NC(C)(C)C)CC2)nc2ccccc12 ... 910
CCOC(=O)N1CCN(C(=O)[C@H](CC(=O)NCC(=O)O)NC(=O)c2cc(OC)c3ccccc3n2)CC1 ... 1100
CCOC(=O)N1CCN(C(=O)CNC(=O)c2cc(OCC)c3ccccc3n2)CC1 ... 840
CCOC(=O)N1CCN(C(=O)CN(C)C(=O)c2cc(OC)c3ccccc3n2)CC1 ... 21000

Please find the next compound below.
IN: Reported IC50, compound `CCOC(=O)N1CCN(C(=O)[C@@H](CSCC(=O)O)NC(=O)c2cc(OC)c3ccccc3n2)CC1` : ____
OUT: 190

###

assayExplanation: Metabolic stability in rat liver microsomes assessed as parent compound remaining at 3000 nM
Type: ADME, microsome
condition: read-out: Stability
measuredProperty: remaining at 3 µM

IN: # query: remaining at 3 µM of entry `CCOC(=O)N1CCN(C(=O)[C@H](CCC(=O)O)NC(=O)c2cc(OC)c3ccccc3n2)CC1`
OUT: > 90%

###

assayExplanation: Plasma concentration in Sprague-Dawley rat at 2 mg/kg, po via gavage after 1 hr using sample obtained from jugular vein
Format: ADME, organism-based
measuredProperty: concentration at 1 h (nM)
Just the number please, in nM, no unit attached.

CCOC(=O)N1CCN(C(=O)[C@H](CCC(=O)O)NC(=O)c2cc(OC)c3ccccc3n2)CC1 ... 120

The record that follows has no concentration at 1 h shown yet.
IN: Give its concentration at 1 h value. Item: `CCOC(=O)N1CCN(C(=O)[C@H](CC(=O)O)NC(=O)c2cc(OC)c3ccccc3n2)CC1`
OUT: 270

###

assayExplanation: Cmax in Sprague-Dawley rat at 2 mg/kg, po via gavage
Format: ADME, organism-based
Parameters: dose 2 mg/kg, route oral
condition: in vivo
Reported Cmax values for the following compounds.
Give just the number in nM; leave the unit off.

CCOC(=O)N1CCN(C(=O)CNC(=O)c2ccc3ccccc3c2)CC1 ... 1500
CCOC(=O)N1CCN(C(=O)CNC(=O)C=C2c3ccccc3-c3ccccc32)CC1 ... 2700
CCOC(=O)N1CCN(C(=O)CNC(=O)c2cc(OC)c3ccccc3n2)CC1 ... 1200

# input for lookup
IN: What value of measured Cmax is listed for `CCOC(=O)N1CCN(C(=O)[C@H](CCC(=O)O)NC(=O)c2cc(OC)c3ccccc3n2)CC1` ?
OUT: 120

###

assaySystem: P2Y purinoceptor 12 (Homo sapiens)
assayExplanation: Displacement of [3H]2MeSADP from P2Y12 receptor in human platelets after 60 mins by TopCount scintillation counting method
measuredProperty: pIC50
The meaning of pIC50 here: minus log10 of the concentration in molar units.

CCOC(=O)N1CCN(C(=O)[C@@H](NC(=O)c2cc(OC)c3ccccc3n2)C(C)C)CC1 ... 5.82

IN: Please give the measured pIC50 for this compound: `CCOC(=O)N1CCN(C(=O)[C@H](CO)NC(=O)c2cc(OC)c3ccccc3n2)CC1`
OUT: 5.96

IN: Using the record for `CCOC(=O)N1CCN(C(=O)[C@H](CCCC(=O)O)NC(=O)c2cc(OC)c3ccccc3n2)CC1` , report its pIC50.
OUT: 6.57

IN: What measured pIC50 goes with `CCOC(=O)N1CCN(C(=O)[C@H](CC(=O)O)NC(=O)c2cc(OC)c3ccccc3n2)CC1` ?
OUT: 6.82

###

assaySystem: P2Y purinoceptor 12 (Homo sapiens, UniProt Q9H244)
assayExplanation: Displacement of [3H]2MeSADP from P2Y12 receptor in human platelets after 60 mins by TopCount scintillation counting method
Reported IC50 values are given for each entry in this list.
Enter your answer as a number in µM; do not include the unit.

CCOC(=O)N1CCN(C(=O)[C@@H](CC(=O)O)NC(=O)c2cc(OC)c3ccccc3n2)CC1 ... 18

IN: I have this molecule here, `CCOC(=O)N1CCN(C(=O)[C@H](COCC(=O)O)NC(=O)c2cc(OC)c3ccccc3n2)CC1` , and I need its recorded IC50.
OUT: 0.2

IN: Recorded IC50 for `CCOC(=O)N1CCN(C(=O)CNC(=O)C=C2c3ccccc3-c3ccccc32)CC1` , please?
OUT: 0.86

IN: Fill blank: measured IC50 of the molecule `CCOC(=O)N1CCN(C(=O)[C@H](C)NC(=O)c2cc(OC)c3ccccc3n2)CC1` is ____.
OUT: 1.9

###

assayExplanation: Metabolic stability in human liver microsomes assessed as parent compound remaining at 3000 nM
Assay type: ADME, microsome
condition: read-out: Stability
measuredProperty: remaining at 3 µM

IN: // lookup remaining at 3 µM for `CCOC(=O)N1CCN(C(=O)[C@H](CCC(=O)O)NC(=O)c2cc(OC)c3ccccc3n2)CC1`
OUT: > 90%

###

assayExplanation: Metabolic stability in dog liver microsomes assessed as parent compound remaining at 3000 nM
Format: ADME, Canis lupus familiaris, microsome
condition: read-out: Stability
measuredProperty: remaining at 3 µM

IN: Quick one: remaining at 3 µM for `CCOC(=O)N1CCN(C(=O)[C@H](CCC(=O)O)NC(=O)c2cc(OC)c3ccccc3n2)CC1` ?
OUT: > 90%

###

assayExplanation: Oral bioavailability in Sprague-Dawley rat at 2 mg/kg via gavage
Format: ADME, organism-based
condition: in vivo
measuredProperty: bioavailability (%)
Kindly provide the numeric value in % only, without the unit symbol.

IN: Quick one: bioavailability for `CCOC(=O)N1CCN(C(=O)CNC(=O)c2cc(OC)c3ccccc3n2)CC1` ?
OUT: 42

###

assayExplanation: Half life in Sprague-Dawley rat at 2 mg/kg, po via gavage
Format: ADME, organism-based
condition: in vivo
measuredProperty: half-life
Output should be the measured figure followed by the unit it is expressed in.

IN: Endpoint output: half-life of `CCOC(=O)N1CCN(C(=O)[C@H](CCC(=O)O)NC(=O)c2cc(OC)c3ccccc3n2)CC1` . Value?
OUT: 1.2 h

###

assaySystem: P2Y purinoceptor 12 (Homo sapiens, UniProt Q9H244)
assayExplanation: Displacement of [3H]2MeSADP from P2Y12 receptor in human platelets after 60 mins by TopCount scintillation counting method
Each record gets a class by IC50: small value (below 1000 nM), mid value (1000 nM to below 2000 nM), large value (2000 nM or more)

CCOC(=O)N1CCN(C(=O)CNC(=O)c2cc(OC)c3ccccc3n2)CC1 ... small value
CCCCCC(=O)N1CCN(C(=O)CNC(=O)c2cc(OC)c3ccccc3n2)CC1 ... mid value
CCOC(=O)N1CCN(C(=O)[C@H](Cc2ccccc2)NC(=O)c2cc(OC)c3ccccc3n2)CC1 ... large value
COc1cc(C(=O)NCC(=O)N2CCN(c3cccc(C)c3)CC2)nc2ccccc12 ... small value
CCOC(=O)N1CCN(C(=O)[C@@H](C)NC(=O)c2cc(OC)c3ccccc3n2)CC1 ... large value
CCOC(=O)N1CCN(C(=O)CNC(=O)c2cc(OC)c3ccccc3n2)C[C@@H]1C ... mid value
CCOC(=O)N1CCN(C(=O)[C@H](Cc2c[nH]c3ccccc23)NC(=O)c2cc(OC)c3ccccc3n2)CC1 ... large value
CCOC(=O)N1CCN(C(=O)[C@H](Cc2cnc[nH]2)NC(=O)c2cc(OC)c3ccccc3n2)CC1 ... mid value

IN: Form: Item = `CCOC(=O)N1CCN(C(=O)[C@H](CC(N)=O)NC(=O)c2cc(OC)c3ccccc3n2)CC1` ; Class = ?
OUT: large value

IN: Which class holds `CCOC(=O)N1CCN(C(=O)CNC(=O)c2ccc3ccccc3c2)CC1` ?
OUT: mid value

IN: Which category fits this record: `CCOC(=O)N1CCN(C(=O)[C@@H](CCC(=O)O)NC(=O)c2cc(OC)c3ccccc3n2)CC1`
OUT: large value

IN: # classify by IC50 band: `CCOC(=O)N1CCN(C(=O)[C@H](CCCCN)NC(=O)c2cc(OC)c3ccccc3n2)CC1`
OUT: large value

IN: Quick check: band for `CCOC(=O)N1CCN(C(=O)[C@H](CCC(N)=O)NC(=O)c2cc(OC)c3ccccc3n2)CC1`
OUT: large value

IN: Class label required: `CCCOc1cc(C(=O)NCC(=O)N2CCN(C(=O)OCC)CC2)nc2ccccc12`
OUT: small value

IN: Dear colleague, I would appreciate it if you could identify the bin for `CCOC(=O)N1CCN(C(=O)[C@H](CCC(=O)O)NC(=O)c2cc(OC)c3ccccc3n2)CC1` and reply at your convenience.
OUT: small value

IN: Could you place `CCOC(=O)N1CCN(C(=O)CNC(=O)c2cc(OC)c3ccccc3n2)[C@@H](C)C1` in its proper category? Many thanks.
OUT: mid value
